Test system: HEK293
Assay details: maximal inhibition of ZIKV NS1 production (% inhibition); higher = stronger antiviral effect
Kindly supply the reported maximal inhibition values for the records listed here.
When you answer, write just the number.

Asked: Item `CCN1/C(=C/C=C/c2sc3ccccc3[n+]2CC)Sc2ccccc21` has what recorded maximal inhibition?
Given back: 71

Asked: Which maximal inhibition is listed for `CC(=O)O[C@H]1C(=O)[C@@]2(C)[C@H]([C@H](OC(=O)c3ccccc3)[C@]3(O)C[C@H](OC(=O)[C@H](O)[C@@H](NC(=O)c4ccccc4)c4ccccc4)C(C)=C1C3(C)C)[C@]1(OC(C)=O)CO[C@@H]1C[C@@H]2O` ?
Given back: 38

Asked: Can you share its maximal inhibition? I mean this molecule: `COc1cc2nc(-c3cc(F)ccc3O)nc(N[C@@H]3CNC[C@H]3C(C)(C)O)c2cc1OC`
Given back: 98

Asked: For the molecule shown here, `CC(C)n1nc(-c2cc3cc(O)ccc3[nH]2)c2c(N)ncnc21` , give the reported maximal inhibition.
Given back: 78

Asked: Entry under review: `CCCCCC(=O)O[C@]1(C(C)=O)CC[C@H]2[C@@H]3CCC4=CC(=O)CC[C@]4(C)[C@H]3CC[C@@]21C` . Reported maximal inhibition?
Given back: 99

Asked: Please give the measured maximal inhibition for this molecule: `O=[N+]([O-])c1ccc2c(c1)S(=O)(=O)C=C2`
Given back: 103

Asked: Looking for the measured maximal inhibition of `COc1cc(NS(C)(=O)=O)ccc1Nc1c2ccccc2nc2ccccc12` , can you help?
Given back: 105

Asked: Endpoint output: maximal inhibition of `CS[C@H]1SC[C@H]2C(=O)N(C)[C@@H](C(C)C)C(=O)OC[C@@H](NC(=O)c3cnc4ccccc4n3)C(=O)N[C@@H](C)C(=O)N(C)[C@@H]1C(=O)N(C)[C@@H](C(C)C)C(=O)OC[C@@H](NC(=O)c1cnc3ccccc3n1)C(=O)N[C@@H](C)C(=O)N2C` . Value?
Given back: 98
